Reference source for all entries: patent US10231980B2

- Test system: PC3
- Protocol: ATP-dependent cell viability assay (Cell Titer Glo), Example 12
- Condition details: PC3; Tables I and II; titrated 3 uM to 200 uM; 3 days
Reported metric: IC50 (µM)
// return numeric value only (unit: µM, not printed)

Can you look up the measured IC50 of CCCCC(=O)O[C@]1(C(=O)COC(=O)CC)CC[C@H]2[C@@H]3CCC4=CC(=O)CC[C@]4(C)[C@H]3CC[C@@]21C [CB-03-10, cortexolone 17α-valerate-21-propionate] for me? 53

* * *

- Tested on: PC3 (AR−)
- Protocol: ATP-dependent proliferation assay with 10 nM DHT, prostate cancer cells (Examples 1, 2)
- Format: cell-based, human
- Condition details: Homo sapiens, PC3/AR
Reported metric: IC50

Can you look up the measured IC50 of C[C@]12CCC(=O)C=C1CC[C@@H]1[C@@H]2CC[C@@]2(C)[C@H]1CC[C@]2(OC(=O)c1ccccc1)C(=O)CO [CB-03-06, cortexolone 17α-benzoate] for me? 28 µM

* * *

- System: Panc1
- Protocol: ATP-dependent cell viability assay (Cell Titer Glo), Example 12
- Condition details: Homo sapiens, PANC-1, 72 h
Reported metric: pIC50
Note: pIC50 values are expressed as the negative base-10 logarithm of concentration in M.

Can you look up the measured pIC50 of C[C@]12CCC(=O)C=C1CC[C@@H]1[C@@H]2CC[C@@]2(C)[C@H]1CC[C@]2(OC(=O)c1ccccc1)C(=O)CO [CB-03-06, cortexolone 17α-benzoate] for me? 4.55

Can you look up the measured pIC50 of CCCC(=O)OCC(=O)[C@@]1(OC(=O)CCC)CCC2C3CCC4=CC(=O)CC[C@]4(C)C3CC[C@@]21C (some centres unmarked) [CB-03-03] for me? 4.15

* * *

- Test system: LNCaP (AR+)
- Protocol: ATP-dependent proliferation assay with 10 nM DHT, prostate cancer cells (Examples 1, 2)
- Format: cell-based, human
- Condition details: LNCaP; Experiment 1, sigmoidal dose response fit; 10 nM DHT; 3 days; read-out: IC50
Reported metric: pIC50
Note: pIC50 values are expressed as the negative base-10 logarithm of concentration in M.

Can you look up the measured pIC50 of CCCCC(=O)O[C@]1(C(=O)COC(=O)CC)CC[C@H]2[C@@H]3CCC4=CC(=O)CC[C@]4(C)[C@H]3CC[C@@]21C [CB-03-10, cortexolone 17α-valerate-21-propionate] for me? 4.89

* * *

- System: MiaPaca2 (AR low)
- Protocol: ATP-dependent proliferation assay with 10 nM DHT, pancreatic cancer cells (Examples 3, 4, 7)
- Condition details: MiaPaca2; Example 7, Experiment 1
Reported metric: pIC50
Note: pIC50 values are expressed as the negative base-10 logarithm of concentration in M.

Can you look up the measured pIC50 of CCCCC(=O)O[C@]1(C(=O)COC(=O)CC)CC[C@H]2[C@@H]3CCC4=CC(=O)CC[C@]4(C)[C@H]3CC[C@@]21C [CB-03-10, cortexolone 17α-valerate-21-propionate] for me? 4.47

* * *

- Tested on: MiaPaca2
- Protocol: ATP-dependent cell viability assay (Cell Titer Glo), Example 12
- Condition details: human, 3 days
Can you tell me Therapeutic Index = IC50 resting PBMC/IC50 cancer cell for the items I'm about to list?

Can you look up the measured Therapeutic Index = IC50 resting PBMC/IC50 cancer cell of CCCCC(=O)O[C@]1(C(=O)CO)CC[C@H]2[C@@H]3CCC4=CC(=O)CC[C@]4(C)[C@H]3CC[C@@]21C [CB-03-05, cortexolone 17α-valerate] for me? 2

Can you look up the measured Therapeutic Index = IC50 resting PBMC/IC50 cancer cell of CCCC(=O)OC1(C(=O)CO)CCC2C3CCC4=CC(=O)CC[C@]4(C)C3=CC[C@@]21C (single isomer, unassigned) for me? 2

Can you look up the measured Therapeutic Index = IC50 resting PBMC/IC50 cancer cell of CCCC(=O)OCC(=O)[C@@]1(OC(=O)CCC)CCC2C3CCC4=CC(=O)CC[C@]4(C)C3CC[C@@]21C (stereo partly shown) for me? 5

Can you look up the measured Therapeutic Index = IC50 resting PBMC/IC50 cancer cell of CCC(=O)O[C@]1(C(=O)CO)CC[C@H]2[C@@H]3CCC4=CC(=O)CC[C@]4(C)[C@H]3CC[C@@]21C [CB-03-01, cortexolone 17α-propionate] for me? 0
